Hello, the source for this data is ChEMBL document CHEMBL1154433, in case you need it.

Exercise: state measured Activity for each of the compounds provided.
- Test system: Mus musculus
- assay-name: Analgesic activity in mouse assessed as protection against phenylquinone-induced writhing at 50 mg/kg, po administered 1 hr before phenylquinone challenge measured for 5 mins relative to control
- Type: functional
Numbers only, in %.

Please review the entries below; each comes with its answer.
COc1ccc(C2SCC(=O)N2c2nnc(CNc3nnc4c5ccccc5nc-4s3)s2)cc1 (stereo not given): 10.76
CN(C)c1ccc(C2C(Cl)C(=O)N2c2nnc(CNc3nnc4c5ccccc5nc-4s3)s2)cc1 (stereo not given): 22.67
COc1ccccc1C1C(Cl)C(=O)N1c1nnc(CNc2nnc3c4ccccc4nc-3s2)s1 (stereo not given): 35
Clc1ccc(/C=N/c2nnc(CNc3nnc4c5ccccc5nc-4s3)s2)cc1: 16.5
COc1ccc(/C=N/c2nnc(CNc3nnc4c5ccccc5nc-4s3)s2)cc1: 15.67
O=C1C(Cl)C(c2ccc(O)cc2)N1c1nnc(CNc2nnc3c4ccccc4nc-3s2)s1 (stereo not given): 19.95

For every listed record, write down its Activity.
1. O=C1CSC(c2ccc(Cl)cc2)N1c1nnc(CNc2nnc3c4ccccc4nc-3s2)s1 (stereo not given)
2. O=C1CSC(c2ccccc2)N1c1nnc(CNc2nnc3c4ccccc4nc-3s2)s1 (stereo not given)

### Response
1: 8.78; 2: 9.7

----------
- assay-system: Prostaglandin G/H synthase 1 (Homo sapiens) (UniProt P23219)
- Sequence (P23219 whole entry): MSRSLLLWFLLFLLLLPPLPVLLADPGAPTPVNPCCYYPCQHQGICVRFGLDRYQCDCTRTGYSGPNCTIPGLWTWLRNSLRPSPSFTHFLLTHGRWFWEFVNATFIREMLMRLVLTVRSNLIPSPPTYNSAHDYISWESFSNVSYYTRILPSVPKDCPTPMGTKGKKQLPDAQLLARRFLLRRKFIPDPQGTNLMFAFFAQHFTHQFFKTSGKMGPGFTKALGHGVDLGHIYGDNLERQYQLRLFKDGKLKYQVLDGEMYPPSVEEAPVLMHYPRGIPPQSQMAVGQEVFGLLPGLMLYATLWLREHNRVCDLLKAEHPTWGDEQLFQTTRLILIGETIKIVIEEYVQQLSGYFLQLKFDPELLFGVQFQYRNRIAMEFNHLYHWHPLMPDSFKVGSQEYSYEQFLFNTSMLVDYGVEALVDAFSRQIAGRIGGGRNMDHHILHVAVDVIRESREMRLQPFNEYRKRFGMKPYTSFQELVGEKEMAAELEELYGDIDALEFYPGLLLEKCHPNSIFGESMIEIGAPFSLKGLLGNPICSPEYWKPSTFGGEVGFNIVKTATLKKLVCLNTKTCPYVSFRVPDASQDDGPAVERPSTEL
- assay-name: Inhibition of COX1
- Set-up: concentration or dose not given beside the values
- run-conditions: concentration not given here
parameter: inhibition (%)
Answers are plain numbers, in %.

For every listed record, write down its inhibition.
1. CN(C)c1ccc(/C=N/c2nnc(CNc3nnc4c5ccccc5nc-4s3)s2)cc1
2. Clc1ccc(/C=N/c2nnc(CNc3nnc4c5ccccc5nc-4s3)s2)cc1
3. COc1ccc(C2SCC(=O)N2c2nnc(CNc3nnc4c5ccccc5nc-4s3)s2)cc1 (stereo not given)
4. O=C1C(Cl)C(c2ccccc2Cl)N1c1nnc(CNc2nnc3c4ccccc4nc-3s2)s1 (stereo not given)

### Response
1. 24.2
2. 27.4
3. 34.3
4. 69.1

For every listed record, write down its inhibition.
1. O=C1CSC(c2ccccc2Cl)N1c1nnc(CNc2nnc3c4ccccc4nc-3s2)s1 (stereo not given)
2. C(=N\c1nnc(CNc2nnc3c4ccccc4nc-3s2)s1)/c1ccccc1
3. O=C1CSC(c2ccccc2)N1c1nnc(CNc2nnc3c4ccccc4nc-3s2)s1 (stereo not given)
4. O=C1C(Cl)C(c2ccc(O)cc2)N1c1nnc(CNc2nnc3c4ccccc4nc-3s2)s1 (stereo not given)
5. COc1ccc(/C=N/c2nnc(CNc3nnc4c5ccccc5nc-4s3)s2)cc1
6. CN(C)c1ccc(C2SCC(=O)N2c2nnc(CNc3nnc4c5ccccc5nc-4s3)s2)cc1 (stereo not given)

### Response
43.1
22.4
31.9
39.3
26.2
32.2

----------
- assay-system: Prostaglandin G/H synthase 2 (Homo sapiens) (UniProt P35354)
- Sequence (whole entry): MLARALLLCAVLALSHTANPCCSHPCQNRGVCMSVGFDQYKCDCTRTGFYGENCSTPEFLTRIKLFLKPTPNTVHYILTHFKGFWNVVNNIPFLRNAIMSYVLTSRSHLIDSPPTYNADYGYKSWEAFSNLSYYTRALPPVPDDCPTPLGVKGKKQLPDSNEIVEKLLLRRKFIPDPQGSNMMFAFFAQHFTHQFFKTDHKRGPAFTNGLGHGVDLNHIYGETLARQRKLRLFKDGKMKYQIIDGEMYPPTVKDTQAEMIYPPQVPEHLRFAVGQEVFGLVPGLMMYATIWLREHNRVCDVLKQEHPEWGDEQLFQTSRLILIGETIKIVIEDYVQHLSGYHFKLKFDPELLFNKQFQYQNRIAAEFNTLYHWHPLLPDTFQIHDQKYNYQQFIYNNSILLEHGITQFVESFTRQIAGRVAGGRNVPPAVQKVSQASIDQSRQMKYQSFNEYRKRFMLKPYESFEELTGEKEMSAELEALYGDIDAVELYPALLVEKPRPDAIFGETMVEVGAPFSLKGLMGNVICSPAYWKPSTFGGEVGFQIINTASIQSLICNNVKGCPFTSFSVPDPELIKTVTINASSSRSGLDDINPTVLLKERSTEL
- assay-name: Inhibition of COX2
- Set-up: concentration or dose not given beside the values
- run-conditions: concentration not given here
parameter: inhibition (%)
Answers are plain numbers, in %.

Please review the entries below; each comes with its answer.
Oc1ccc(/C=N/c2nnc(CNc3nnc4c5ccccc5nc-4s3)s2)cc1: 31.5
Cc1ccc(/C=N/c2nnc(CNc3nnc4c5ccccc5nc-4s3)s2)cc1: 25.4
C(=N\c1nnc(CNc2nnc3c4ccccc4nc-3s2)s1)/c1ccccc1: 24.2

For every listed record, write down its inhibition.
1. COc1ccccc1C1SCC(=O)N1c1nnc(CNc2nnc3c4ccccc4nc-3s2)s1 (stereo not given)
2. Clc1ccccc1/C=N/c1nnc(CNc2nnc3c4ccccc4nc-3s2)s1

### Response
[38.5, 34.4]

----------
- assay-system: Prostaglandin G/H synthase 2 (Homo sapiens) (UniProt P35354)
- assay-name: Inhibition of COX2
- Parameters: concentration or dose not given beside the values
- run-conditions: concentration not given here
Criterion: inhibition meeting or surpassing 40%. Met: 1. Not met: -1.

O=C1C(Cl)C(c2ccccc2)N1c1nnc(CNc2nnc3c4ccccc4nc-3s2)s1 (stereo not given): 1
Cc1ccc(C2SCC(=O)N2c2nnc(CNc3nnc4c5ccccc5nc-4s3)s2)cc1 (stereo not given): -1
O=C1C(Cl)C(c2ccc(Cl)cc2)N1c1nnc(CNc2nnc3c4ccccc4nc-3s2)s1 (stereo not given): 1
COc1ccccc1/C=N/c1nnc(CNc2nnc3c4ccccc4nc-3s2)s1: -1

### Prompt State whether the measured inhibition reaches 40%, counting equality as reaching it, for CN(C)c1ccc(C2SCC(=O)N2c2nnc(CNc3nnc4c5ccccc5nc-4s3)s2)cc1 (stereo not given)
### Response -1

----------
- assay-system: Prostaglandin G/H synthase 2 (Homo sapiens)
- assay-name: Inhibition of COX2
- Design: concentration or dose not given beside the values
- run-conditions: concentration not given here
parameter: inhibition

CN(C)c1ccc(C2C(Cl)C(=O)N2c2nnc(CNc3nnc4c5ccccc5nc-4s3)s2)cc1 (centres undefined): 65.8%
O=C1C(Cl)C(c2ccc(O)cc2)N1c1nnc(CNc2nnc3c4ccccc4nc-3s2)s1 (centres undefined): 71.1%
Clc1ccc(/C=N/c2nnc(CNc3nnc4c5ccccc5nc-4s3)s2)cc1: 33.7%
COc1ccccc1C1C(Cl)C(=O)N1c1nnc(CNc2nnc3c4ccccc4nc-3s2)s1 (centres undefined): 64.3%

For every listed record, write down its inhibition.
1. CN(C)c1ccc(/C=N/c2nnc(CNc3nnc4c5ccccc5nc-4s3)s2)cc1
2. O=C1C(Cl)C(c2ccccc2Cl)N1c1nnc(CNc2nnc3c4ccccc4nc-3s2)s1 (centres undefined)
3. O=C1CSC(c2ccccc2)N1c1nnc(CNc2nnc3c4ccccc4nc-3s2)s1 (centres undefined)
4. O=C1CSC(c2ccccc2Cl)N1c1nnc(CNc2nnc3c4ccccc4nc-3s2)s1 (centres undefined)
5. COc1ccc(C2C(Cl)C(=O)N2c2nnc(CNc3nnc4c5ccccc5nc-4s3)s2)cc1 (centres undefined)
6. COc1ccc(C2SCC(=O)N2c2nnc(CNc3nnc4c5ccccc5nc-4s3)s2)cc1 (centres undefined)
7. COc1ccc(/C=N/c2nnc(CNc3nnc4c5ccccc5nc-4s3)s2)cc1
8. Cc1ccc(C2C(Cl)C(=O)N2c2nnc(CNc3nnc4c5ccccc5nc-4s3)s2)cc1 (centres undefined)

### Response
1: 26.4%; 2: 93.3%; 3: 36.7%; 4: 45.4%; 5: 66.3%; 6: 40.1%; 7: 29.4%; 8: 63.6%

For every listed record, write down its inhibition.
1. O=C1CSC(c2ccc(Cl)cc2)N1c1nnc(CNc2nnc3c4ccccc4nc-3s2)s1 (centres undefined)
2. O=C1CSC(c2ccc(O)cc2)N1c1nnc(CNc2nnc3c4ccccc4nc-3s2)s1 (centres undefined)

### Response
1. 44.1%
2. 44%

----------
- assay-name: Toxicity in 24 hrs fasted Albino rat assessed as ulcerogenic activity after 8 hrs
- Format: organism-based
- run-conditions: in vivo, read-out: UD50
parameter: TD50 at 8 h (mg/kg)
Numbers only, in mg/kg.

Please review the entries below; each comes with its answer.
O=C1C(Cl)C(c2ccccc2Cl)N1c1nnc(CNc2nnc3c4ccccc4nc-3s2)s1 (stereo not drawn): 133
CCCCC1C(=O)N(c2ccccc2)N(c2ccccc2)C1=O: 54.6

Now let's try a different one.
### Prompt Requested read-out: TD50 at 8 h. Entry: O=C1CSC(c2ccccc2Cl)N1c1nnc(CNc2nnc3c4ccccc4nc-3s2)s1 (stereo not drawn)
### Response 167

----------
- Tested on: Mus musculus
- assay-name: Analgesic activity in mouse assessed as protection against phenylquinone-induced writhing at 50 mg/kg, po administered 1 hr before phenylquinone challenge measured for 5 mins relative to control
- Assay type: functional
parameter: Activity (%)
Answers are plain numbers, in %.

COc1ccccc1C1SCC(=O)N1c1nnc(CNc2nnc3c4ccccc4nc-3s2)s1 (stereo not given): 22.56
C(=N\c1nnc(CNc2nnc3c4ccccc4nc-3s2)s1)/c1ccccc1: 12.16
O=C1C(Cl)C(c2ccc(Cl)cc2)N1c1nnc(CNc2nnc3c4ccccc4nc-3s2)s1 (stereo not given): 25.01
O=C1C(Cl)C(c2ccccc2)N1c1nnc(CNc2nnc3c4ccccc4nc-3s2)s1 (stereo not given): 21

Now let's try a different one.
### Prompt Requested read-out: Activity. Entry: "Cc1ccc(/C=N/c2nnc(CNc3nnc4c5ccccc5nc-4s3)s2)cc1"
### Response 12.67
